System: Mus musculus
Measurement Notes: Anorexigenic activity in Mus musculus Swiss (mouse) at 75 umol/kg, ip measured for 15 min relative to control
Format: functional
The label is yes (1) for Activity below 50% and no (0) for Activity equal to or exceeding 50%.

Field: example entries. Status: answers known.
Compound | Class Assignment
Cc1ccccc1OCC(O)CN(C)CCC(Oc1ccc(C(F)(F)F)cc1)c1ccccc1 (stereo unspecified) | no (0)
CC(=O)Nc1ccc(OCC(O)CN(C)CCC(Oc2ccc(C(F)(F)F)cc2)c2ccccc2)cc1 (stereo unspecified) | no (0)
CN(CCC(Oc1ccc(C(F)(F)F)cc1)c1ccccc1)CC(O)COc1ccccc1 (stereo unspecified) | no (0)
CC(=O)c1ccc(OCC(O)CN(C)CCC(Oc2ccc(C(F)(F)F)cc2)c2ccccc2)cc1 (stereo unspecified) | yes (1)
CN(CCC(Oc1ccc(C(F)(F)F)cc1)c1ccccc1)CC(O)COc1ccc2ccccc2c1 (stereo unspecified) | yes (1)
COc1ccccc1OCC(O)CN(C)CCC(Oc1ccc(C(F)(F)F)cc1)c1ccccc1 (stereo unspecified) | no (0)
CN(CCC(Oc1ccc(C(F)(F)F)cc1)c1ccccc1)CC(O)COc1ccc(Br)cc1 (stereo unspecified) | no (0)
COc1ccc(OCC(O)CN(C)CCC(Oc2ccc(C(F)(F)F)cc2)c2ccccc2)cc1 (stereo unspecified) | no (0)
CN(CCC(Oc1ccc(C(F)(F)F)cc1)c1ccccc1)CC(O)COc1ccc(Cl)cc1 (stereo unspecified) | yes (1)
CN(CCC(Oc1ccc(C(F)(F)F)cc1)c1ccccc1)CC(O)COc1cccc(C(F)(F)F)c1 (stereo unspecified) | yes (1)

# input for lookup
Exercise: I'd appreciate it if you could check whether CCNc1ccc(OCC(O)CN(C)CCC(Oc2ccc(C(F)(F)F)cc2)c2ccccc2)cc1 (stereo unspecified) has Activity smaller than 50%.
Solution: no (0)
